MEASUREMENT TARGET: hErbB3.mmh (soluble monomeric human ErbB3 extracellular domain with C-terminal myc-myc-hexahistidine tag) (human, UniProt P21860 20-642)
Sequence (P21860 other isoform, or with tags, fused parts or gaps): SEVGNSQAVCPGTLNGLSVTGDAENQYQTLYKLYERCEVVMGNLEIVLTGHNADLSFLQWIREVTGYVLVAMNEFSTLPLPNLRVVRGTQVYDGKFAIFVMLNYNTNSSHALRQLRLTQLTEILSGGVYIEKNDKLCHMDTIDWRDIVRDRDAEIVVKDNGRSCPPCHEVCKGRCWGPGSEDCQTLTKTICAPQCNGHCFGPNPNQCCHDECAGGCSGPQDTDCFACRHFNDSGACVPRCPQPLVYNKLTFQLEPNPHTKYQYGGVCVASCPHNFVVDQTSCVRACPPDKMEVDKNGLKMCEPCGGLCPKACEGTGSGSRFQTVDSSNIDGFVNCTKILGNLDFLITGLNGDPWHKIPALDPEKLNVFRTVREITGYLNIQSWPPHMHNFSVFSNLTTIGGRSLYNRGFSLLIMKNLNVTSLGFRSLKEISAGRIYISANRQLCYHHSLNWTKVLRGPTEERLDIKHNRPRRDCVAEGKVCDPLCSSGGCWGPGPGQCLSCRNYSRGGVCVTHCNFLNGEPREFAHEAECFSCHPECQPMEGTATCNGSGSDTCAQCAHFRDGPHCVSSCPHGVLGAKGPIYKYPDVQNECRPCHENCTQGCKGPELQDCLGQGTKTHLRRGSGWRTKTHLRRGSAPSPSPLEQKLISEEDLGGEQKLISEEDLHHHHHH
MEASUREMENT NOTES: SPR (Biacore), 25 C, mAb capture format
Would you mind telling me the reported koff of each entry?
Remember to follow the number with its unit.

Enquiry: // query koff value for entry H4H2154P (antibody, V domains shown, Fully human, human IgG4 Fc (H4H prefix)) VH: QVQLQESGPGLINPSQTLSVTCTVSGGSISSGGYYWTWIRQHPGKGLEWIGYISYSGNTNYNPSLKSRVTISVDTAKNQFSLKLSSVTAADTAVYFCARDSDVDTAMVDGIDIWGQGTMVTVSS VL: DIQMTQSPSSVSASVGDRVTITCRASQDISSWLAWYQQKPGRAPKLLIYTASSLQSGVPSRFSGSGSGTDFTLTISSLQPEDFATYFCQQANSFPFTFGPGTKVDIKR
Return: 3.73e-05 s⁻¹

Enquiry: Another: H2M1938N (antibody, V domains shown, Hybridoma chimeric antibody: human variable domains, mouse IgG2 Fc (H2M prefix)) VH: EVQLVESGGGVVRPGGSLRLSCAASGFTFDDYGMSWVRQVPGKGLEWVSGLNWNGGITGYTDSVKGRFTISRDNAKNSLYLQMNSLRAEDTAFYHCARDSGDQDAFDIWGQGTMVTVSS VL: QIVMTQSPATLSVSPGERATLSCRASQSITPYLAWYQQKPGQTPRLLIYGVSTRATGIPARFSGSGSGTEFTLTISSLQSEDFAVYYCQQYDNWYTFGQGTKLEIK
Return: 0.000144 s⁻¹

Enquiry: Another: H4H2102P (antibody, V domains shown, Fully human, human IgG4 Fc (H4H prefix)) VH: EVQLVESGGGLVQPGGSLRLSCAASGFTFSNYDIHWVRQATGKGLEWVSAIGPAGDTYYSDSVKGRFTISREDAKNSLYLQMSSLRAGDTAVYYCASEGIAVRPDDYYGMDVWGQGTTVTVSA VL: DIQLTQSPSFLSASVGDRVTITCWASQDITSYLAWYQKKPGKAPKLLIYAASTLQSGVPSRFSGSGSGTEFTLTISSLQPEDFAAYYCQQLNSYPLTFGGGTKVDIKR
Return: 4.88e-05 s⁻¹

Enquiry: Another: H4H2132P (antibody, V domains shown, Fully human, human IgG4 Fc (H4H prefix)) VH: EVQLVESGGGVVRPGGSLRLSCAASGFTFDDYGMSWVRQFPGKGLEWVSSIDGNGGNTGYSDSVKGRFTISRDNAKNSLHLQMNSLRAEDTALYHCARDPDYDSVWGNYRPFDYWGQGTLVTVSS VL: DIVMTQSPDSLAVSLGERATINCKSSQSVLSSSNDNNYLAWFQQKPGQPPNLLIYWASTRDSGVPDRFSASGSGTDFTLAISSLQAEDVAVYYCHQYYSSPPTFGQGTKVEIKR
Return: 3.81e-05 s⁻¹

Lab note: next binder to report on.
Enquiry: // query koff value for entry H1M1819N (antibody, V domains shown, Hybridoma chimeric antibody: human variable domains, mouse constant domains (H1M prefix, mouse Fc)) VH: EVQLVESGGGVVRPGGSLRLSCAASGFTFDDYAMHWVRQAPGKGLEWVAGISWNSGSIDYADSVKGRFTISRDNAKNSLYLQMNSLRAGDTALYYCAKDILDLDYYGLDVWGQGTTVTVSS VL: DIQMTQSPSSLSASVGDRVTITCRASQDISSYLAWYQQKPGKVPNLLIYDASSLQSGVPSRFSGSGSGTDFTLTLSSLQPEDFASYYCQNYNSAPYTFGQGTKLEIK
Return: 0.000322 s⁻¹
